# system: human Matrix Metalloproteinase-9 (MMP9), MMP9 (gene 4318) (UniProt P14780)
# Sequence (P14780 whole entry, looked up): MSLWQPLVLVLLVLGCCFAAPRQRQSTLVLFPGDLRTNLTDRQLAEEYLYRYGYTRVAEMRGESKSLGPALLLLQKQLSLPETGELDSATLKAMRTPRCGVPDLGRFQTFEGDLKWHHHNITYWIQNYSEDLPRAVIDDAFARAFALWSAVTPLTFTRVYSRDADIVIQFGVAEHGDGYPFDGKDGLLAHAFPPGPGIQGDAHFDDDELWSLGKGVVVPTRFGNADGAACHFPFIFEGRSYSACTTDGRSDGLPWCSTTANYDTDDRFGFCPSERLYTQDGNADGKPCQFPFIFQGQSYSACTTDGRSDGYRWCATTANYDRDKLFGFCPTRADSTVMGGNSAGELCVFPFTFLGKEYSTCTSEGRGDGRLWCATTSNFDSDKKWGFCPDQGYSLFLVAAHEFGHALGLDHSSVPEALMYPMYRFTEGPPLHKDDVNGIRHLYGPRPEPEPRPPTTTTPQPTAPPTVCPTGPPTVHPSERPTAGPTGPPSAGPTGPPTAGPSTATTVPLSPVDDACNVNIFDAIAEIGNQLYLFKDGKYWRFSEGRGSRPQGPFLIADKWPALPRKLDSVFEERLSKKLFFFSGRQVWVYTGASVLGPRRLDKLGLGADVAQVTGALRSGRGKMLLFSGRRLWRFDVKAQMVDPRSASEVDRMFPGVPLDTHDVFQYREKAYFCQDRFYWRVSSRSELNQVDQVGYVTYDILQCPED
# test: NVS_ENZ_hMMP9: NovaScreen (NVS) Enzymatic Assay for human Matrix Metalloproteinase-9 (MMP9) (AID 2283190);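 further: cell-free recombinant MMP9 protease activity read by fluorescent substrate signal; active means inhibition seen as loss of fluorescence signal versus DMSO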
Records with an inconclusive call do not appear. The source made the active and inactive calls. How the source made its calls: active means hit-call score of the fitted dose curve at least 0.9, where 1 is the maximum; inconclusive means response in the unintended direction; inactive means score below 0.9.
Please reply with one of these outcomes: active, inactive

CCCCNC(=O)n1c(NC(=O)OC)nc2ccccc21 :: inactive
CC1COC(Cn2cncn2)(c2ccc(Oc3ccc(Cl)cc3)cc2Cl)O1 (centres undefined) :: inactive
COc1ccc(C(c2ccc(OC)cc2)C(Cl)(Cl)Cl)cc1 :: inactive

Okay, next one:
Task: Which outcome was assigned to C=CCC1=C(C)C(OC(=O)C2C(C=C(C)C)C2(C)C)CC1=O (centres undefined) in this test?
Output: active

* * *

# system: Nuclear receptor subfamily 1 group I member 2 (Homo sapiens)
# test: ATG_PXR_TRANS: Attagene TRANS-FACTORIAL HepG2 Assay for human Pregnane X Receptor (PXR) (AID 2283008)
Records with an inconclusive call do not appear. Active and inactive are the calls of the source. The calls were made as follows: active = hit-call score of the fitted dose curve at least 0.9, where 1 is the maximum; inconclusive = response in the unintended direction; inactive = score below 0.9.
Give one outcome, nothing more. List: active, inactive

The following molecules have reported results that may help.
COC(=O)N(OC)c1ccccc1COc1ccn(-c2ccc(Cl)cc2)n1 :: inactive
CC(C)(C)c1ccc(CSc2cnn(C(C)(C)C)c(=O)c2Cl)cc1 :: inactive
Cc1c(F)c(F)c(COC(=O)C2C(/C=C(\Cl)C(F)(F)F)C2(C)C)c(F)c1F (stereo unspecified) :: active
COP(=S)(OC)Oc1nc(Cl)c(Cl)cc1Cl :: inactive
CCOc1cc(Oc2ccc(C(F)(F)F)cc2Cl)ccc1[N+](=O)[O-] :: inactive
COP(N)(=O)SC (stereo unspecified) :: inactive

Task: Returns: the outcome recorded for C=CCC1=C(C)[C@@H](OC(=O)[C@@H]2[C@@H](C=C(C)C)C2(C)C)CC1=O in this assay.
Output: inactive

Task: Could you kindly confirm the outcome this assay logged for C#CCOS(=O)OC1CCCCC1Oc1ccc(C(C)(C)C)cc1 (stereo unspecified) ?
Output: inactive

Task: In this assay, the call recorded for COc1nc(C)nc(NC(=O)NS(=O)(=O)c2ccccc2CCC(F)(F)F)n1 was what?
Output: inactive

Task: Outcome logged for N#CC(CCc1ccc(Cl)cc1)(Cn1cncn1)c1ccccc1 (stereo unspecified) in this assay:
Output: inactive

Task: Outcome logged for N#Cc1cc(Br)c(O)c(Br)c1 in this assay:
Output: inactive

* * *

# test: APR_HepG2_MitoMembPot_1hr: Apredica 1-hour HepG2 Assay for Mitochondrial Membrane Potential (AID 2282675)
# condition: imaging, actives raise or lower the signal
Activity calls are given as the source filed them. How the source made its calls: active means hit-call score of the fitted dose curve at least 0.9, where 1 is the maximum; inactive means score below 0.9.
Assign a class; possible classes are active, inactive

Task: What did the test return for Cc1ccc(-c2c(Cl)nc(C#N)n2S(=O)(=O)N(C)C)cc1 ?
Output: active

Task: Which outcome did this test record for the compound CCCCOC(=O)c1ccccc1C(=O)OCCCC ?
Output: inactive

Task: What classification did CS/C(C)=N/OC(=O)N(C)SN(C)C(=O)O/N=C(\C)SC end up with in this test?
Output: inactive

Task: For CC(C)Oc1cc(-n2nc(C(C)(C)C)oc2=O)c(Cl)cc1Cl , which call appears in the assay record?
Output: inactive

* * *

# test: ATG_CRE_CIS: Attagene CIS-FACTORIAL HepG2 Assay for human cAMP Responsive Element (CRE) binding protein 3 (AID 2282926)
# condition: HepG2 CRE cis-reporter, Attagene multiplexed mRNA; actives raise or lower the signal
Calls of active or inactive are those of the source. The calls were made as follows: active = hit-call score of the fitted dose curve at least 0.9, where 1 is the maximum; inactive = score below 0.9.
The reply should name one outcome from class 1 = active, class 0 = inactive

# count of solved cases: 3
CON(C)C(=O)Nc1ccc(Cl)c(Cl)c1 :: class 0
CCCC1COC(Cn2cncn2)(c2ccc(Cl)cc2Cl)O1 (stereo unspecified) :: class 0
CCOc1cc(Oc2ccc(C(F)(F)F)cc2Cl)ccc1[N+](=O)[O-] :: class 0

Task: Could you please tell me the result logged for COc1nc(C)nc(NC(=O)NS(=O)(=O)c2ccccc2Cl)n1 in this assay?
Output: class 0

Task: Please state the recorded outcome for this compound: CCc1nn(C)c(C(=O)NCc2ccc(C(C)(C)C)cc2)c1Cl
Output: class 1

Task: Please indicate how the test categorized CCOC(=O)C(Cl)Cc1cc(-n2nc(C)n(C(F)F)c2=O)c(F)cc1Cl (stereo unspecified) .
Output: class 0

* * *

# Read-out: Transforming Growth Factor (TGFB1), TGFB1 (gene 7040)
# test: LTEA_HepaRG_TGFB1: Life Technologies and Expression Analysis (LTEA) Assay for Transforming Growth Factor (TGFB1) Transporter using HepaRG (AID 2283533)
# condition: mRNA level, 48 h; actives raise or lower the signal
Activity calls are given as the source filed them. The calls were made as follows: active = hit-call score of the fitted dose curve at least 0.9, where 1 is the maximum; inactive = score below 0.9.
Respond with a class label; see 1 for active, 0 for inactive

CO/C=C(/C(=O)OC)c1ccccc1Oc1cc(Oc2ccccc2C#N)ncn1 :: 0

Task: Would you mind telling me which call this test gave CC1=C(C(=O)Nc2ccccc2)SCCO1 ?
Output: 0

Task: What was the test verdict on CN(C)C(=S)SSC(=S)N(C)C ?
Output: 0

Task: Outcome logged for CC(C)C1(C)N=C(c2nc3ccccc3cc2C(=O)O)NC1=O (stereo not drawn) in this assay:
Output: 0

* * *

# Read-out: xenobiotic metabolism (CYP1A1), CYP1A1 (gene 1543)
# test: CLD_CYP1A1_6hr: CellzDirect (CLD) Gene Expression Assay for xenobiotic metabolism (CYP1A1) at 6 hours (AID 2283661);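 on AC50: potency for transcript induction above DMSO vehicle baseline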
Records with an inconclusive call do not appear. Calls of active or inactive are those of the source. Rule for the calls: active = hit-call score of the fitted dose curve at least 0.9, where 1 is the maximum; inconclusive = response in the unintended direction; inactive = score below 0.9.
property-label: AC50

Fc1ccc(Oc2ccnc3cc(Cl)cc(Cl)c23)cc1 :: 3130 nM (active)
CCNc1nc(Cl)nc(NC(C)C)n1 :: 2190 nM (active)
CNC(=O)ON=CC(C)(C)SC :: 0.972 nM (active)
COC(=O)c1ccccc1C(=O)OC :: inactive
CCON=C(CC)C1=C(O)CC(c2c(C)cc(C)cc2C)CC1=O (stereo not drawn) :: inactive
COc1ccc(C(c2ccc(OC)cc2)C(Cl)(Cl)Cl)cc1 :: 15800 nM (active)

Form: compound = N#CC(CCc1ccc(Cl)cc1)(Cn1cncn1)c1ccccc1 (stereo not drawn) ; AC50 = 1890 nM (active)

Record C#CCOS(=O)OC1CCCCC1Oc1ccc(C(C)(C)C)cc1 (stereo not drawn) . Reported AC50: 3670 nM (active)

Record summary for COP(N)(=O)SC (stereo not drawn) : reported AC50 = inactive

Item: CCNc1nc(Cl)nc(NCC)n1 | AC50: 4720 nM (active)

The measured AC50 associated with C=CCC1=C(C)C(OC(=O)C2C(C=C(C)C)C2(C)C)CC1=O (stereo not drawn) reads inactive

The compound CON(C)C(=O)Nc1ccc(Cl)c(Cl)c1 showed AC50 equal to 762 nM (active)

In plain terms, CC(Oc1ccc(Cl)cc1Cl)C(=O)O (stereo not drawn) has a documented AC50 of inactive

* * *

# Tested on: zebrafish Peroxisome Proliferator-activated Receptor gamma (PPARg), gene 557037
# test: ATG_zfPPARg_XSP2: Attagene TRANS-FACTORIAL Multi-Species (XSP2) HepG2 Assay for zebrafish Peroxisome Proliferator-activated Receptor gamma (PPARg) (AID 2283833);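 further: reporter mRNA from a zebrafish PPARg GAL4 chimera measured by RT-PCR and capillary electrophoresis; actives increase reporter signal over DMSO so AC50 reflects activation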
Inconclusive results are not listed. Calls of active or inactive are those of the source. How the source made its calls: active means hit-call score of the fitted dose curve at least 0.9, where 1 is the maximum; inconclusive means response in the unintended direction; inactive means score below 0.9.
Classes to choose from: class 1 (active), class 0 (inactive)

Task: Answer briefly: the call reported for CCCC1COC(Cn2cncn2)(c2ccc(Cl)cc2Cl)O1 (stereo not given) in this assay.
Output: class 0

Task: Assay outcome for CON(C)C(=O)Nc1ccc(Cl)c(Cl)c1 : what was it?
Output: class 0

Task: Outcome logged for CC(C)Oc1cc(-n2nc(C(C)(C)C)oc2=O)c(Cl)cc1Cl in this assay:
Output: class 0

Task: Per the records of this test, what outcome belongs to CCOP(=S)(OCC)SCn1c(=O)oc2cc(Cl)ccc21 ?
Output: class 0

Task: How was OC(c1ccc(Cl)cc1)(c1cncnc1)c1ccccc1Cl (stereo not given) classified in this test?
Output: class 1

Task: State the result this test recorded for C#CCOS(=O)OC1CCCCC1Oc1ccc(C(C)(C)C)cc1 (stereo not given) .
Output: class 0

Task: I'd appreciate the recorded outcome for CCCCOC(=O)c1ccccc1C(=O)OCCCC from this test.
Output: class 0

Task: Recorded test call requested for CCCN(CCC)c1c([N+](=O)[O-])cc(S(N)(=O)=O)cc1[N+](=O)[O-]
Output: class 0

Task: What is the recorded call for this compound in the test? CO/C=C(/C(=O)OC)c1ccccc1Oc1cc(Oc2ccccc2C#N)ncn1
Output: class 0

Task: Tell me the assay call for C=CC1(C)OC(=O)N(c2cc(Cl)cc(Cl)c2)C1=O (stereo not given) please.
Output: class 0

* * *

# test: CPHEA_Stoker_NIS_Cytotoxicity: Cytotoxicity Assessment for CPHEA's Radioactive Iodide Uptake (RAIU) Assay for Sodium/Iodide Symporter (NIS) Inhibition, Stoker and Laws Labs (AID 2283897)
Active and inactive are the calls of the source. The calls were made as follows: active = hit-call score of the fitted dose curve at least 0.9, where 1 is the maximum; inconclusive = response in the unintended direction; inactive = score below 0.9.
Please answer using one outcome listed in active, inactive

Before answering, review these 3 worked examples.
CC1COC(Cn2cncn2)(c2ccc(Oc3ccc(Cl)cc3)cc2Cl)O1 (configuration not stated) :: active
O=C(Nc1ccccc1)Nc1ccnc(Cl)c1 :: active
CC(C)(C)c1ccc(CSc2cnn(C(C)(C)C)c(=O)c2Cl)cc1 :: inactive

Task: Name the outcome recorded for CC(C)Oc1cc(-n2nc(C(C)(C)C)oc2=O)c(Cl)cc1Cl in the assay.
Output: inactive

Task: For N#Cc1nn(-c2c(Cl)cc(C(F)(F)F)cc2Cl)c(N)c1S(=O)C(F)(F)F (configuration not stated) , what call appears in the results of this test?
Output: inactive
